Assay: Antioxidant activity assessed as inhibition of fenton reaction-induced pBR322 DNA single strand break by agarose gel electrophoresis
Type: functional
Calls of active or inactive are those of the source. No cut-off for these calls is given here.
Respond with a class label; see 1 (active), -1 (inactive)

| COMPOUND | QUALITATIVE_LABEL |
| --- | --- |
| O=c1oc2cc(/C=C/c3ccc(O)c(O)c3)oc(=O)c2c2cc(O)c(O)cc12 | 1 |
| O=c1cc(O)cc([C@H]2c3c(cc(/C=C/c4ccc(O)c(O)c4)oc3=O)O[C@@H]2c2ccc(O)c(O)c2)o1 | 1 |
| CC1=CC(=O)[C@H](c2c(O)cc(/C=C/c3ccc(O)c(O)c3)oc2=O)[C@@H](c2ccc(O)c(O)c2)O1 | 1 |

In this assay, the call recorded for CC(=O)/C=C(O)/C(=C\c1ccc(O)c(O)c1)c1c(O)cc(/C=C/c2ccc(O)c(O)c2)oc1=O was what? 1

In this assay, the call recorded for CC1=CC(=O)C2(O1)c1c(cc(/C=C/c3ccc(O)c(O)c3)oc1=O)OC2c1ccc(O)c(O)c1 (configuration not stated) was what? 1

In this assay, the call recorded for COC(=O)CC1=CC(=O)[C@H](c2c(O)cc(/C=C/c3ccc(O)c(O)c3)oc2=O)[C@@H](c2ccc(O)c(O)c2)O1 was what? 1

In this assay, the call recorded for O=c1cc(O)cc(/C=C/c2ccc(O)c(O)c2)o1 was what? -1
